# ASSAY_NOTES: RP, Thermo Scientific Hypersil GOLD, 1.9 µm, 40 °C, 0.4 mL/min; A: water + 0.1% formic acid, pH 3; B: acetonitrile + 0.1% formic acid, pH 3; gradient (min/%B) 0/0 1/0 11/100 13/100 14/0 16/0
# PARTICULARS: stereoisomer not certain
Structures can show the parent of a compound that is named as a salt.
Examples of compounds with documented LC retention time follow.
MEASURE_NAME: LC retention time (min)

[[record]]
compound = "NC(Cc1ccc(O)c(O)c1)C(=O)O [3-4-DIHYDROXY-L-PHENYLALANINE]"
numeric_result = 0.82

[[record]]
compound = "O=C([O-])c1ccccn1 [PICOLINATE]"
numeric_result = 0.82

[[record]]
compound = "O=CCC(O)C(O)CO (stereo not drawn)"
numeric_result = 0.82

[[record]]
compound = "Cn1cnc2nc(N)[nH]c(=O)c21"
numeric_result = 0.82

[[record]]
compound = "NC(=O)c1ccccc1O [SALICYLAMIDE]"
numeric_result = 5.33

[[record]]
compound = "Nc1ncnc2c1ncn2C1OC(COP(=O)(O)OP(=O)(O)OC2OC(CO)C(O)C(O)C2O)C(O)C1O (stereo not drawn)"
numeric_result = 1.27

[[record]]
compound = "CC(O)(CCO)CC(=O)[O-] (stereo not drawn) [MEVALONATE]"
numeric_result = 0.55

[[record]]
compound = "O=C(CO)C(O)C(O)C(O)CO (stereo not drawn)"
numeric_result = 0.64

[[record]]
compound = "CC(C)=CCNc1ncnc2nc[nH]c12"
numeric_result = 5.26

[[record]]
compound = "CC(C)(CO)C(O)C(=O)NCCC(=O)O (stereo not drawn) [PANTOTHENATE]"
numeric_result = 4.11

[[record]]
compound = "Nc1cc([O-])cc(C(=O)O)c1 [3-AMINO-5-HYDROXYBENZOATE]"
numeric_result = 0.81

[[record]]
compound = "N[C@H](C(=O)O)c1ccc(O)cc1 [4-HYDROXY-L-PHENYLGLYCINE]"
numeric_result = 0.67

[[record]]
compound = "CC(=O)OC(CC(=O)[O-])C[N+](C)(C)C (stereo not drawn) [o-acetyl-l-carnitine hydrochloride]"
numeric_result = 0.81

